biological target: SMN (aa 80–170) (Homo sapiens, UniProt Q16637)
Sequence (Q16637 80-170): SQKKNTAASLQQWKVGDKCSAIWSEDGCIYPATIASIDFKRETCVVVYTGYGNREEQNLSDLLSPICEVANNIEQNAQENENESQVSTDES
Square brackets hold non-standard residues; d marks the D form. Peptide text beside a SMILES is read from it. Arg(Me) = CNC(=N)NCCC[C@H](N)C(=O)O
Measurement kind: Kd

Task: Find Kd for CNC(=N)NCCC[C@H](NC(=O)CNC(=O)[C@@H](N)[C@@H](C)O)C(=O)N[C@@H](C)C(=O)N[C@@H](CCCNC(=N)N)C(=O)N[C@@H](C)C(=O)N[C@@H](CCCNC(=N)N)C(=O)N[C@@H](C)C(=O)N[C@@H](CCCNC(=N)N)C(=O)NCC(=O)N[C@@H](CCCNC(=N)N)C(=O)N[C@@H](C)C(=O)N[C@@H](CCCNC(=N)N)C(=O)NCC(=O)N[C@@H](CCC(N)=O)C(=O)N[C@@H](CCC(=O)O)C(=O)O [PIWIL1-R4me1] (H-TG[Arg(Me)]ARARARGRARGQE-OH; N-terminus and C-terminus assumed) on SMN (aa 80–170) (Homo sapiens, UniProt Q16637) and write it down.
Result: > 150 µM
